assay_procedure: method code SF-AS, from PMID: 7324974
experimental_context: pH 5.0
Where logD equals or exceeds 0.6, the correct label is Criterion met; where it does not, the label is Criterion not met.

COC(=O)c1cnc2n(c1=O)CCCC2 :: Criterion not met

Next up:
-- ask Textbook exercise: given the entry `CCOC(=O)c1cnc2c(C)cccn2c1=O` , state whether its logD is greater than or equal to 0.6.
-- reply Criterion met

----------
assay_procedure: method code SF-AS, from PMID: 7324974
experimental_context: pH 5.0
recorded_metric: logD
Answers are plain numbers.

CCCC1CCCc2ncc(C(=O)OC)c(=O)n21 (stereo not given) :: 1.14
CC1CCCC2N(C)C=C(C(N)=O)C(=O)N12 (stereo not given) :: 0.22
CCCc1nc2cccc(C)n2c(=O)c1CC :: 2.37

Give logD for each listed item.
1. CCOC(=O)c1cnc2n(c1=O)CC(C)CC2 (stereo not given)
2. CC1CCCc2ncc(C(N)=O)c(=O)n21 (stereo not given)

-- reply
1: 0.71; 2: 0.04

Give logD for each listed item.
1. CCN1C=C(C(N)=O)C(=O)N2C(C)CCCC12 (stereo not given)
2. Cc1cccc2ncc(-c3ccccc3)c(=O)n12

-- reply
1. 0.6
2. 2.59

Give logD for each listed item.
1. CCOC(=O)c1cnc2ccccn2c1=O
2. CC1CCCC2NC=C(C(N)=O)C(=O)N12 (stereo not given)
3. Cc1cnc2ccccn2c1=O

-- reply
0.25
0.51
0.77

Give logD for each listed item.
1. COC(=O)c1cnc2n(c1=O)C(C)CCC2 (stereo not given)
2. CCc1cc(=O)n2c(C)cccc2n1
3. CCOC(=O)c1cnc2ccc(C)cn2c1=O
4. CCc1nc2cccc(C)n2c(=O)c1C
5. CCOC(=O)c1cnc2cccc(C)n2c1=O

-- reply
1. 0.16
2. 1.59
3. 0.9
4. 1.87
5. 0.96

----------
assay_procedure: method code SF-AS, from PMID: 7324974
experimental_context: pH 5.0
For each record, write down the corresponding logD.
Give bare numbers.

Take a look at these entries with their results.
CCOC(=O)c1cnc2cc(C)ccn2c1=O :: 0.87
CCOC(=O)c1cnc2n(c1=O)C(C)CCC2 (configuration not stated) :: 0.62
CCOC(=O)C1=CNC2CCCCN2C1=O (configuration not stated) :: 0.57
CCOC(=O)C1=CNC2CCCC(C)N2C1=O (configuration not stated) :: 0.79
CC1CCC=C2N(C)C=C(C(N)=O)C(=O)N21 (configuration not stated) :: 0.12
CCOC(=O)C1=CN(C)C2CCCC(C)N2C1=O (configuration not stated) :: 0.45
CCOC(=O)c1cnc2n(c1=O)CCC(C)C2 (configuration not stated) :: 0.66
Cc1cc(=O)n2c(C)cccc2n1 :: 1.05
CCc1cccc2nc(C)cc(=O)n12 :: 1.63
COC(=O)c1cnc2n(c1=O)C(C(C)C)CCC2 (configuration not stated) :: 0.99

Give logD for each listed item.
1. CCOC(=O)c1cnc2n(c1=O)CCCC2
2. CCCCC1CCCc2ncc(C(=O)OC)c(=O)n21 (configuration not stated)

-- reply
[0.15, 1.77]

These measurements were taken from the SangsterLogP compilation.
